Data export: log10 of Ki values recorded with Histamine H4 receptor (Homo sapiens, UniProt Q9H3N8).
Sequence (Q9H3N8 whole entry): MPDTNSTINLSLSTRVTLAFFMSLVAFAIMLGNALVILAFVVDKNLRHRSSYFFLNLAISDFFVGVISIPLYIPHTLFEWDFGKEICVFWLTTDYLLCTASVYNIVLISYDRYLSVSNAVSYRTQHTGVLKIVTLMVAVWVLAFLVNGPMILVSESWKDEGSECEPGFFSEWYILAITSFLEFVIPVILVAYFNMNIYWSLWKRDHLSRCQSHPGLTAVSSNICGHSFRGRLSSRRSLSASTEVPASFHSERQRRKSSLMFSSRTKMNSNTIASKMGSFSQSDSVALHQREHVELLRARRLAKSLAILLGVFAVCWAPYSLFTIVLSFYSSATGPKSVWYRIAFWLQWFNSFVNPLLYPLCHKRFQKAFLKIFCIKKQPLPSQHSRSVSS
Lab note - Ki converted to log10 from values in µM.

Answered cases to consult:
MOLECULE: N/C(=N\C(=O)NCCCCCCCCNC(=O)/N=C(\N)NCCCc1nnc(N)s1)NCCCc1nnc(N)s1
log10 of Ki: 0.95

MOLECULE: CC(CNC(=O)/N=C(\N)NCCCc1nnc(N)s1)C1CCCCC1 (stereo not given)
log10 of Ki: 1.10

MOLECULE: Cc1ccc(CC(C)CNC(=O)/N=C(\N)NCCCc2cnc(N)s2)cc1 (stereo not given)
log10 of Ki: 0.65

MOLECULE: Cc1ccc(CC(C)CNC(=O)/N=C(\N)Nc2cccc(-c3sc(N)nc3C)c2)cc1 (stereo not given)
log10 of Ki: 0.87

Turning to the following molecule.
Form field - read-out: log10 of Ki; system: Histamine H4 receptor (Homo sapiens, UniProt Q9H3N8); submitted item: C[C@@H](NC(=O)/N=C(\N)NCCCc1c[nH]cn1)c1ccccc1
-2.07

---

ASSAY TARGET: UniProt:P21728
Sequence (P21728 whole entry): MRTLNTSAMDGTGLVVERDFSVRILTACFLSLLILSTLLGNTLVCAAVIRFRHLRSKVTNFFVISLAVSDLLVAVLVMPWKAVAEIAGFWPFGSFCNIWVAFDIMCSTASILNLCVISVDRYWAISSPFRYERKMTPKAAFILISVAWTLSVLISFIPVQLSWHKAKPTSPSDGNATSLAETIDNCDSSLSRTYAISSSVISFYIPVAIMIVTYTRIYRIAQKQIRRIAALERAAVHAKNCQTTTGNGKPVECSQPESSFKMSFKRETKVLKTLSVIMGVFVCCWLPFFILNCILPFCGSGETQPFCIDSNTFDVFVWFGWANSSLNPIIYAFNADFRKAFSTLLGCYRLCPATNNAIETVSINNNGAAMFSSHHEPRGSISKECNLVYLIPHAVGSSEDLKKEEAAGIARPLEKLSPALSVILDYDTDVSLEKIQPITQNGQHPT
ASSAY PROCEDURE: Displacement of [3H]SCH23390 from human D1 receptor stably expressed in HEK293T cells co-expressing luciferase and CEK incubated for 60 mins by scintillation counting analysis
MEASURED METRIC: Ki

Answered cases to consult:
SMILES REPRESENTATION: C[C@@H](NC(=O)/N=C(\N)NCCCc1ncn[nH]1)c1ccccc1
ASSAY TARGET: UniProt:P21728
Ki: 2190 nM

SMILES REPRESENTATION: CCCCCNC(=O)/N=C(\N)NCCCc1sc(N)nc1C
ASSAY TARGET: UniProt:P21728
Ki: 257 nM

SMILES REPRESENTATION: CCCCCNC(=O)/N=C(\N)NCCCc1nnc(N)s1.O=C(O)C(F)(F)F.O=C(O)C(F)(F)F
ASSAY TARGET: UniProt:P21728
Ki: 2450 nM

Fill in: Ki of N/C(=N\C(=O)NCc1ccccc1)NCCCc1nnc(N)s1 is ___
1380 nM

---

ASSAY TARGET: Alpha-2A adrenergic receptor (Homo sapiens, UniProt P08913)
Sequence (P08913 whole entry): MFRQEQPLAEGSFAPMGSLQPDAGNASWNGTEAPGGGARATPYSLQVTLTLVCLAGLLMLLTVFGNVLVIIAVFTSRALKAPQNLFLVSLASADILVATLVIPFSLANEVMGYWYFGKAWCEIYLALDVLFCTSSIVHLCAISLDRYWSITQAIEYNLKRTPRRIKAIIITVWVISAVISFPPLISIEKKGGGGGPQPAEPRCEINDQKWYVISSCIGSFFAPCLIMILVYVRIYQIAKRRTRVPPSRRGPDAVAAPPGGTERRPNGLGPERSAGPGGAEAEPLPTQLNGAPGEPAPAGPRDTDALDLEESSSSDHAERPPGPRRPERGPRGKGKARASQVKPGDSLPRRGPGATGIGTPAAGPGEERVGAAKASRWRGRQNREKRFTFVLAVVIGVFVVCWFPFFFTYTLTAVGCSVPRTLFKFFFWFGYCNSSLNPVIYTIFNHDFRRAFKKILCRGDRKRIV
ASSAY PROCEDURE: Displacement of [3H]RX821002 from human alpha-2A adrenergic receptor […] in HEK293T cell membrane incubated for 2 hrs by scintillation counting analysis
Type: cell membranes
Items are presented alongside their recorded Kd.
Report only the number, with the unit nM understood.

SMILES REPRESENTATION: C[C@@H](NC(=O)/N=C(\N)NCCCc1ncn[nH]1)c1ccccc1
ASSAY TARGET: Alpha-2A adrenergic receptor (Homo sapiens, UniProt P08913)
TEST RESULT: 0.6

Turning to the following molecule.
Fill in: Kd of CCCCCNC(=O)/N=C(\N)NCCCc1nnc(N)s1.O=C(O)C(F)(F)F.O=C(O)C(F)(F)F is ___
0.6

---

Items are presented alongside their recorded pKi.
ASSAY TARGET: Histamine H3 receptor (Homo sapiens)
Sequence (Q9Y5N1 whole entry): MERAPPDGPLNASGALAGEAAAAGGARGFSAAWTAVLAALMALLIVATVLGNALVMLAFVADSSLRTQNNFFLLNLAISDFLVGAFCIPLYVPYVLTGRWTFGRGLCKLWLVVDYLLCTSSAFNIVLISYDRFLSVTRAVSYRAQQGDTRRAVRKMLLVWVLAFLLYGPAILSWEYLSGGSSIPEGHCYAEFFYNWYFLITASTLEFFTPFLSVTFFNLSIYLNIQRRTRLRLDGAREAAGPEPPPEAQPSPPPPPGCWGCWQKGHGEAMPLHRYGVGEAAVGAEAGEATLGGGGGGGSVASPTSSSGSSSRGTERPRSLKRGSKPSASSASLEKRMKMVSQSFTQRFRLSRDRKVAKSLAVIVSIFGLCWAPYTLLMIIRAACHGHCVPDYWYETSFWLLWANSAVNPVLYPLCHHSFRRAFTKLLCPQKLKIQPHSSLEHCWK
ASSAY PROCEDURE: Displacement of [3H]UR-PI294 from human histamine H3 receptor stably expressed in baculovirus infected Sf9 cell membrane co-expressing G-alphai2 and G-beta1gamma2 incubated for 60 mins by scintillation counting analysis
Type: cell membranes
Value format note: pKi is -log10 of concentration (mol/L); just state the number.

Answered cases to consult:
COMPOUND: CCCCCNC(=O)/N=C(\N)Nc1cccc(-c2sc(N)nc2C)c1.O=C(O)C(F)(F)F.O=C(O)C(F)(F)F
ASSAY TARGET: Histamine H3 receptor (Homo sapiens)
TEST RESULT: 5.02

COMPOUND: N/C(=N\C(=O)NCCCCCCCCNC(=O)/N=C(\N)NCCCc1nnc(N)s1)NCCCc1nnc(N)s1
ASSAY TARGET: Histamine H3 receptor (Homo sapiens)
TEST RESULT: 5.16

COMPOUND: Cc1nc(N)sc1-c1ccc(N/C(N)=N/C(=O)NCc2ccccc2)cc1
ASSAY TARGET: Histamine H3 receptor (Homo sapiens)
TEST RESULT: 5.07

COMPOUND: CC(CCCc1ccccc1)CNC(=O)/N=C(\N)NCC1CCc2nc(N)sc2C1 (stereo not given)
ASSAY TARGET: Histamine H3 receptor (Homo sapiens)
TEST RESULT: 5.76

COMPOUND: CCCCCNC(=O)/N=C(\N)Nc1ccc(-c2sc(N)nc2C)cc1.O=C(O)C(F)(F)F.O=C(O)C(F)(F)F
ASSAY TARGET: Histamine H3 receptor (Homo sapiens)
TEST RESULT: 4.94

COMPOUND: Cc1ccc(CC(C)CNC(=O)/N=C(\N)NCCCc2nnc(N)o2)cc1 (stereo not given)
ASSAY TARGET: Histamine H3 receptor (Homo sapiens)
TEST RESULT: 5.04

COMPOUND: N/C(=N\C(=O)NCCCCCCNC(=O)/N=C(\N)NCCCc1nnc(N)s1)NCCCc1nnc(N)s1
ASSAY TARGET: Histamine H3 receptor (Homo sapiens)
TEST RESULT: 5.00

COMPOUND: Cc1nc(N)sc1-c1ccc(N/C(N)=N/C(=O)NCC(C)C2CCCCC2)cc1 (stereo not given)
ASSAY TARGET: Histamine H3 receptor (Homo sapiens)
TEST RESULT: 5.25

COMPOUND: C[C@@H](NC(=O)/N=C(\N)NCCCc1c[nH]cn1)c1ccccc1
ASSAY TARGET: Histamine H3 receptor (Homo sapiens)
TEST RESULT: 8.77

COMPOUND: Cc1ccc(CC(C)CNC(=O)/N=C(\N)NCCCc2cnc(N)s2)cc1 (stereo not given)
ASSAY TARGET: Histamine H3 receptor (Homo sapiens)
TEST RESULT: 5.32

Fill in: pKi of Cc1nnc(CCCN/C(N)=N/C(=O)NCCCCCCCCN)s1 is ___
4.93

Fill in: pKi of Cc1nc(N)oc1CCCN/C(N)=N/C(=O)NCC(C)C1CCCCC1.O=C(O)C(F)(F)F.O=C(O)C(F)(F)F (stereo not given) is ___
5.08

---

ASSAY TARGET: UniProt:P35462
Sequence (P35462 whole entry): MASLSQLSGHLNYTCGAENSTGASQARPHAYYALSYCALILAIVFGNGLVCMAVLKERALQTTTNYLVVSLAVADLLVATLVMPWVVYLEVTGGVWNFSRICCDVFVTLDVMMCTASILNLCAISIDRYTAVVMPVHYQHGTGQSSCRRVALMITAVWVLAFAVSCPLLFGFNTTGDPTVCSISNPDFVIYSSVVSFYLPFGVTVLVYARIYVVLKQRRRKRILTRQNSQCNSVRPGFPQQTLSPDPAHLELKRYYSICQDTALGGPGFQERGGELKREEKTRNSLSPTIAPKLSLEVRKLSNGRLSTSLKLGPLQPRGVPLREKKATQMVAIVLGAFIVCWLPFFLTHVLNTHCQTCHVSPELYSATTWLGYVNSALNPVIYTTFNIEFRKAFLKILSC
ASSAY PROCEDURE: Agonist activity at human D3 receptor stably expressed in HEK293T cells co-expressing ElucN-betaarr2 hD3R-ElucC by beta-arrestin2 recruitment assay
Items are presented alongside their recorded EC50.
Report only the number, with the unit nM understood.

Answered cases to consult:
COMPOUND: N/C(=N\C(=O)NCc1ccccc1)NCCCc1cnc(N)s1
ASSAY TARGET: UniProt:P35462
UNIT ABBREVIATION: nM
EC50: 67.6
--
COMPOUND: N/C(=N\C(=O)NCc1ccccc1)NCCCc1nnc(N)s1
ASSAY TARGET: UniProt:P35462
UNIT ABBREVIATION: nM
EC50: 1200
--
COMPOUND: C[C@@H](NC(=O)/N=C(\N)NCCCc1nnc(N)s1)c1ccccc1
ASSAY TARGET: UniProt:P35462
UNIT ABBREVIATION: nM
EC50: 1070
--
COMPOUND: Cc1ccc(CC(C)CNC(=O)/N=C(\N)NCCCc2cnc(N)s2)cc1 (stereo not given)
ASSAY TARGET: UniProt:P35462
UNIT ABBREVIATION: nM
EC50: 1050
--
COMPOUND: CC(NC(=O)/N=C(\N)NCCCc1nnc(N)s1)c1cccc(F)c1 (stereo not given)
ASSAY TARGET: UniProt:P35462
UNIT ABBREVIATION: nM
EC50: 1910
--
COMPOUND: CCCCCCNC(=O)/N=C(\N)NCCCc1nnc(N)s1
ASSAY TARGET: UniProt:P35462
UNIT ABBREVIATION: nM
EC50: 813
--
COMPOUND: CC(CNC(=O)/N=C(\N)NCCCc1nnc(N)s1)C1CCCCC1 (stereo not given)
ASSAY TARGET: UniProt:P35462
UNIT ABBREVIATION: nM
EC50: 1350

Turning to the following compound.
Fill in: EC50 of CC(CCCc1ccccc1)CNC(=O)/N=C(\N)NCCCc1nnc(N)s1 (stereo not given) is ___
468

# credit: ChEMBL document CHEMBL5149991
